- Test system: Candida glabrata
- Test: Minimal Inhibitory Concentration (MIC) assay, broth microdilution per CLSI;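 also: two read times 24 hr and 48 hr of incubation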
- Assay type: cell-based
- Conditions Used: Nakaseomyces glabratus; 48 hr reading (second value of cell 24 hr/48 hr); read-out: Minimum Inhibitory Concentrations against Yeast Isolates, Candida glabrata
Measurement Kind: MIC (µg/mL)

Answered cases to consult:
# Compound, Data Value
rows = [
    ("O=C(Cc1ccc(CCCCc2ccc(NC(=O)NCCN3CCOCC3)cc2)cc1)NO", 16),
    ("O=C(Cc1ccc(CCC/C(=N\\O)c2ccccc2)cc1)NO", 16),
    ("CC(C(=O)NO)c1ccc(CCCCc2ccccc2)cc1 (centres unmarked)", 0.5),
    ("O=C(Cc1ccc(CCCCc2cccc(NC(=O)NCCN3CCOCC3)c2)cc1)NO", 16),
]

I. Cn1ccc2cc(CCCCc3ccc(CC(=O)NO)cc3)ccc21
II. Cc1ccc(CCCCc2ccc(CC(=O)NO)cc2)cc1
Compare MIC: is it lower for I or for II ? Record your answer as the label of the chosen record.
II
(II: 0.25 µg/mL, I: 0.5 µg/mL)

a. CC(CCCc1ccc(CC(=O)NO)cc1)c1ccccc1 (centres unmarked)
b. O=C(Cc1ccc(CCCC(F)(F)c2ccccc2)cc1)NO
c. O=C(Cc1ccc(CCCCc2ccc(O)c(O)c2)cc1)NO
Order the 3 compounds from highest to lowest MIC. List labels; respect the requested ordering.
c, b, a
(c: 2 µg/mL, b: 1 µg/mL, a: 0.5 µg/mL)
